- ASSAYED_SYSTEM: various mutants of kinase EGFR (BaF3 cell lines stably transfected with kinase) (Homo sapiens, UniProt P00533, L858R/T790M)
- Construct: expressed in transfected cells; host or cells: BaF3
- Sequence (P00533 25-1210 T790M/L858R): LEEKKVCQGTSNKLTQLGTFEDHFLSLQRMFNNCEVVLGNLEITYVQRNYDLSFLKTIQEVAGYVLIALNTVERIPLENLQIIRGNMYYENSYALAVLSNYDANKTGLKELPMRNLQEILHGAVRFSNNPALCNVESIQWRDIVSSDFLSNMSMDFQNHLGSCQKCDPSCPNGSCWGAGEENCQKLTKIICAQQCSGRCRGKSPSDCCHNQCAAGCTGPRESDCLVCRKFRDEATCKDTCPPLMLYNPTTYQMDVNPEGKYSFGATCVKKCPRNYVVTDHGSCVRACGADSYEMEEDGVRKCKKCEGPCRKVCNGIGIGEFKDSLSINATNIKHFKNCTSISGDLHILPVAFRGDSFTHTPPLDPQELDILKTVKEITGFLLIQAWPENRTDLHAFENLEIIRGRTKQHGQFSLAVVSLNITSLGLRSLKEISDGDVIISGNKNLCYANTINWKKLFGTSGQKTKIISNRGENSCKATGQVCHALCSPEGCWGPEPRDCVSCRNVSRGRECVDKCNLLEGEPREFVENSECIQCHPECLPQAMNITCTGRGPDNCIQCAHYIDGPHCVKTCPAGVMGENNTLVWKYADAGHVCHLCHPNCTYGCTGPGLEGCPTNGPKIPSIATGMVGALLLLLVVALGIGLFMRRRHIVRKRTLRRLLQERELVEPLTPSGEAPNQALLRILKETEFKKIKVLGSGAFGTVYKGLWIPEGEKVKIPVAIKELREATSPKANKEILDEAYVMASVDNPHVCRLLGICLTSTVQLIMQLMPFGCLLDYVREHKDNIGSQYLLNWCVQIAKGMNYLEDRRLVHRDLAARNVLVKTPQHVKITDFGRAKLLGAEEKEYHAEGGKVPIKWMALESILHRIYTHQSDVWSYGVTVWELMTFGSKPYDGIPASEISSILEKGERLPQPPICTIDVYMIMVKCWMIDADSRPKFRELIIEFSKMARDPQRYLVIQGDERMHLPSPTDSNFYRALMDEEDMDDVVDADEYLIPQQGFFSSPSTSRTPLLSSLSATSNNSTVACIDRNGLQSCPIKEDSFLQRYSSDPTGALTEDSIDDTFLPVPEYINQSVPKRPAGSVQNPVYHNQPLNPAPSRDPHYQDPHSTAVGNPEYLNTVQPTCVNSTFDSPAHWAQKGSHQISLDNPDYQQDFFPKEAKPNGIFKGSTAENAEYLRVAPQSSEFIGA
- PROTOCOL_NOTES: Growth inhibitory activity of compounds on BaF3 cell lines stably transfected with kinase (MTS, 48 h)
- Assay type: cell-based
- EXPERIMENTAL_PARAMETERS: BaF3 cell line stably transfected with EGFR L858R/T790M, read-out: L858R/ T790M growth inhibitory activity IC50
pIC50: −log10 of the molar value.
Below is a list of entries, each paired with its recorded pIC50 value.

I am curious: what pIC50 value has been reported for COc1cc(N2CCN(C)CC2)c(C)cc1Nc1nc(Nc2ccc3nccnc3c2N(C)S(C)(=O)=O)c2cc[nH]c2n1 [II-2-12] ? ≥ 7.30

Also, CCc1cc(Nc2nc(Nc3ccc4nccnc4c3N(C)S(C)(=O)=O)c3[nH]ccc3n2)c(OC)cc1N1CCC(N2CCN(C)CC2)CC1 [II-1-20] please. 6.30 to 7.30

Also, CCOc1cnc(Nc2cc(CC)c(N3CCC(N4CCN(C)CC4)CC3)cc2OC)nc1Nc1ccc2nccnc2c1N(C)S(C)(=O)=O [Compound I-337] please. 6.30 to 7.30
